Listed here are molecules together with their documented growth inhibition.
# Assay Summary: NCI Yeast Anticancer Drug Screen. Data for the mlh1 rad18 strain (AID 175)
# Test Conditions: S. cerevisiae mlh1 rad18 strain growth inhibition; at 50.0 µM; active compounds read high
The panel holds about 79,000 compounds, 15% with a hit somewhere; the sample as a whole holds those more often.
Readout Kind: growth inhibition (%)

>>> df
                                   molecule  assay_value
0  Cc1ccccc1N=CC(C=O)[N+](=O)[O-] (centres undefined)        -5.65
1  CC(CCc1ccccc1)NC1=NCCO1 (centres undefined)          2.7
2  COc1cc(OC)c(OC)cc1/C=C/c1cc[n+](C)c2ccccc12         8.05
3                  CCOC(=O)Nc1nc2ccn(C)c2s1           -8

###

# Assay Summary: NCI Yeast Anticancer Drug Screen. Data for the bub3 strain (AID 167)
# Test Conditions: S. cerevisiae bub3 mutant strain, at 50.0 µM, active compounds read high
About 79,000 compounds went through this panel and 15% of them were active in at least one assay; those are over-represented in the sample as a whole.
Threshold rule: growth inhibition greater than or equal to 10% is True; below that, False.

                                    compound  category_label
 0          CCOC(=O)C(C(=O)OCC)C(=O)C(C)(C)C            True
 1  CN1c2ccccc2N(C)C2C1N(C)c1ccccc1N2C (stereo not given)           False
 2  COc1cc(C2=C3C(=O)OCC3Cc3ccccc32)ccc1OCc1ccccc1 (stereo not given)            True
 3                              CCCC(C)(C)CO           False
 4                Nc1ncnc(N)c1NC(=O)c1ccccc1           False
 5                          Nc1ccc(N)c(Cl)c1           False
 6         Oc1ccc2ccccc2c1/C=N\Sc1ccc(Cl)cc1            True
 7  COc1ccc(/C=N\N2CN(C(CC(N)=O)C(=O)O)C(O)(CCl)N=C2N)cc1OC (stereo not given)           False
 8               C#CCN(CC#C)C(=O)CCCCCCCCC=C            True
 9                     O=C1c2ccccc2C(=O)N1Cl           False
10  C/C(CC1CC=CCC1)=N\NC(N)=O (stereo not given)           False
11  COc1ccc2c(c1)-c1c3c(cc4ccnc(c14)C2=O)OCO3            True
12  COC1=CC(=O)C(C2OC(=O)C(Cl)=C2Cl)=CC1=O (stereo not given)            True
13  CC(/C=C/C=C(\C)C(=O)O)=C\C=C\C=C(C)\C=C\C=C(/C)C(=O)O           False
14                     O=C(O)/C=C/c1ccccc1Br           False
15  Cn1cnc([N+](=O)[O-])c1Sc1nc(N)nc2c1ncn2C1OC(CO)C(O)C1O (stereo not given)            True
16  Cc1cc2c(cc1Cl)SC(NNc1ccc([N+](=O)[O-])cc1)=NS2(=O)=O           False
17      O=S(=O)([O-])c1ccc2c[n+]3ccccc3cc2c1           False
18                    Cc1cccc(NC(=O)C(C)C)c1           False
19  COCC(N=CN1CCCc2ccccc2[C@@H]1CCCCl)C(C)(C)C (stereo not given in full)            True
20  Oc1ccccc1C=Nc1ccc(I)cc1.Oc1ccccc1C=Nc1ccc(I)cc1.[Co]            True
21       Cc1nn(-c2ccccc2)c2oc3ccccc3c(=O)c12           False
22  O=C(CCC1CCCCC1)OCC1CCCO1 (stereo not given)            True
23    Cc1ccc2c(-c3ccc4ccccc4c3)c3ccccc3cc2c1           False
24  C/C(=C/C=C(c1ccccc1)c1ccccc1)C1CCC2C3CCC4CC5CCC4(C)C3(O5)C(=O)CC12C (stereo not given)            True
25        COc1c(Cl)cc([N+](=O)[O-])cc1C(=O)O            True
26             COc1cccc(C[n+]2cc([O-])on2)c1            True
27               CCCC(=O)OCC(C)(C)COC(=O)CCC            True
28  CC1CCCCc2nc3c(c(=O)n21)CCCC3 (stereo not given)            True
29                      COc1cccc(CCC(=O)O)c1           False
